Recorded DC50, one value per entry.
Target: IKZF2 (Homo sapiens, UniProt Q96SW2+Q9UKS7)
Construct: CRISPR/Cas9—mediated insertion of the HiBiT peptide tag (Promega™) to the N-terminus of the IKZF2 gene locus; endogenous in cells; host or cells: MOLT4 cells, with CRISPR/Cas9 knock-in of HiBiT at the endogenous IKZF2 locus
Sequence (Q9UKS7 whole entry): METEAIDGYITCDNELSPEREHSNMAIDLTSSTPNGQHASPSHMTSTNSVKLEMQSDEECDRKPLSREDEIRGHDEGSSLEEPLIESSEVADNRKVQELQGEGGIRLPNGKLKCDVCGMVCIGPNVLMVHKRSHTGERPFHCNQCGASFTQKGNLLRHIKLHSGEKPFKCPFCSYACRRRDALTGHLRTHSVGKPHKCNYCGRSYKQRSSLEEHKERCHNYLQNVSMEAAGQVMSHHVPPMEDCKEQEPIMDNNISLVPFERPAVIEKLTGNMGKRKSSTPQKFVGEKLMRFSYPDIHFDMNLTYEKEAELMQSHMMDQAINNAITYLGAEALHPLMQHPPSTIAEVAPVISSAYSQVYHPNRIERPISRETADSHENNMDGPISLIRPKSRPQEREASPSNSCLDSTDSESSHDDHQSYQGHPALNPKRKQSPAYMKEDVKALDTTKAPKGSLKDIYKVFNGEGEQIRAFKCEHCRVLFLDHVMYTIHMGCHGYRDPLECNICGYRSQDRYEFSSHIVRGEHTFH
Sequence (Q96SW2 whole entry): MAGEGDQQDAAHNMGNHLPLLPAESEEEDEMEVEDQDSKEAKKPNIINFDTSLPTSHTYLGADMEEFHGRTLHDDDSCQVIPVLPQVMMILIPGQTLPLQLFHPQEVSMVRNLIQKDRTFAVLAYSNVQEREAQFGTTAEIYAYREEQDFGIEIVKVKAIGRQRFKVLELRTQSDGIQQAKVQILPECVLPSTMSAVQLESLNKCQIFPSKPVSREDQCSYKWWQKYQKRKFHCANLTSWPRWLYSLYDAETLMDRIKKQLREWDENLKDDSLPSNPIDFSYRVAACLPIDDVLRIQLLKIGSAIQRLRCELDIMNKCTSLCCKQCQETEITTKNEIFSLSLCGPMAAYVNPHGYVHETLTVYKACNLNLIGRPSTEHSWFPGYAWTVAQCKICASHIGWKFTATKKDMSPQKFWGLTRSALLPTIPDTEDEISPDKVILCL
Sequence (Q16531 whole entry partner): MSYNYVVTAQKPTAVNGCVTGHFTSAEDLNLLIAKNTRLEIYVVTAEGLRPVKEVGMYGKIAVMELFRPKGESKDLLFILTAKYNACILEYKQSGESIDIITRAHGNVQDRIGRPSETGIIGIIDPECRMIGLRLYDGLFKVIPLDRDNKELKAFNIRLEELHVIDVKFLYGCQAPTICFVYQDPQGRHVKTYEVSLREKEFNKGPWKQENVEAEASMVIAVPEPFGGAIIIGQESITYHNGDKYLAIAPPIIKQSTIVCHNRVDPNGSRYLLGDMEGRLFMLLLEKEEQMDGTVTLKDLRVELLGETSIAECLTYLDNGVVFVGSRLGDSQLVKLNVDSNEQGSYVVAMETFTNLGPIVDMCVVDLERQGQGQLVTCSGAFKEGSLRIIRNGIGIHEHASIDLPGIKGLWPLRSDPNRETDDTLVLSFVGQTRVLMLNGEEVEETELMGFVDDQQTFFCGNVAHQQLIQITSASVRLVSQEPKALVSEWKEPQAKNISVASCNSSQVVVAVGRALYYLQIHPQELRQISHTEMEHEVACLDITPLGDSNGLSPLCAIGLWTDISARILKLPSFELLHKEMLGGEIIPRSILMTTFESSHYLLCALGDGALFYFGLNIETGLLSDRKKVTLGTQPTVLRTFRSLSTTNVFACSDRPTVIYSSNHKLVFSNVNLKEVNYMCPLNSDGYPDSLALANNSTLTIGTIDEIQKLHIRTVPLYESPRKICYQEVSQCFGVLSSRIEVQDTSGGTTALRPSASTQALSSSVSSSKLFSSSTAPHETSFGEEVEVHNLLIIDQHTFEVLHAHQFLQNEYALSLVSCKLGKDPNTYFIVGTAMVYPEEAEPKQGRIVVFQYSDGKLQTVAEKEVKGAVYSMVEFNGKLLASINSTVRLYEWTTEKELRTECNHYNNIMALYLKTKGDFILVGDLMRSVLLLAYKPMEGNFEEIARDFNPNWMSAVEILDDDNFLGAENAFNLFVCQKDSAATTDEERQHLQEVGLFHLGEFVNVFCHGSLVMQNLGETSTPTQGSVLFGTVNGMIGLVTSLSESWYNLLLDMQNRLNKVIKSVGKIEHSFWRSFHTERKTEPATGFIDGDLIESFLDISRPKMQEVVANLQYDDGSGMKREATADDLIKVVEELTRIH
Assay: HiBit-IKZF2 assay (HiBiT-Helios degradation in MOLT4 cells)
Type: cell-based
Conditions: concentration at which 50% of HiBiT-Helios degradation was achieved
Recorded Endpoint: DC50

1) O=C1CCC(N2Cc3cc(C4(O)CCN(Cc5ccccc5F)CC4)ccc3C2=O)C(=O)N1 (stereo not shown) [Compound 256]    < 10 nM
2) O=C1CCC(N2Cc3cc(C4(O)CCN(Cc5ccnc(Nc6ccccc6)c5F)CC4)ccc3C2=O)C(=O)N1 (stereo not shown) [Compound 198]    < 10 nM
3) O=C1CCC(N2Cc3cc(C4CCN(Cc5ccccc5Nc5ccccn5)CC4)ccc3C2=O)C(=O)N1 (stereo not shown) [Compound 120]    10 to 30 nM
4) O=C1CCC(N2Cc3cc(C4CCN(Cc5cccc(Nc6ccccn6)n5)CC4)ccc3C2=O)C(=O)N1 (stereo not shown) [Compound 101]    10 to 30 nM
5) N#Cc1ccccc1N1Cc2ccc(CN3CCC(c4ccc5c(c4)CN(C4CCC(=O)NC4=O)C5=O)CC3)cc2C1=O (stereo not shown) [Compound 179]    < 10 nM
6) O=C1CCC(N2Cc3cc(C4CCN(Cc5cccc(Nc6ccccn6)c5)CC4)ccc3C2=O)C(=O)N1 (stereo not shown) [Compound 42]    < 10 nM
7) O=C1CCC(N2Cc3cc(C4(O)CCN(Cc5ccc6ccccc6c5)CC4)ccc3C2=O)C(=O)N1 (stereo not shown) [Compound 203]    < 10 nM

====

Target: IKZF2 (Homo sapiens, UniProt Q96SW2+Q9UKS7)
Construct: CRISPR/Cas9—mediated insertion of the HiBiT peptide tag (Promega™) to the N-terminus of the IKZF2 gene locus; endogenous in cells; host or cells: MOLT4 cells, with CRISPR/Cas9 knock-in of HiBiT at the endogenous IKZF2 locus
Assay: HiBit-IKZF2 assay (HiBiT-Helios degradation in MOLT4 cells)
Assay type: cell-based
Details: concentration at which 50% of HiBiT-Helios degradation was achieved
Recorded Endpoint: DC50

1) O=C1CCC(N2Cc3cc(C4(O)CCN(Cc5ccc6c(c5)C(=O)N(c5ccccn5)C6)CC4)ccc3C2=O)C(=O)N1 (centres unmarked)    < 10 nM
2) CP(C)(=O)c1cccc(Nc2cccc(CN3CCC(c4ccc5c(c4)CN(C4CCC(=O)NC4=O)C5=O)CC3)c2)c1 (centres unmarked)    10 to 30 nM
3) O=C1CCC(N2Cc3cc(C4CCN(Cc5cccc(Nc6ncccn6)c5)CC4)ccc3C2=O)C(=O)N1 (centres unmarked)    < 10 nM
4) CN(C(=O)c1ccccc1)c1ccc(CN2CCC(c3ccc4c(c3)CN(C3CCC(=O)NC3=O)C4=O)CC2)cc1 (centres unmarked)    10 to 30 nM
5) O=C1CCC(N2Cc3cc(C4(O)CCN(Cc5ccc(C(F)(F)F)cc5)CC4)ccc3C2=O)C(=O)N1 (centres unmarked)    < 10 nM
6) CN(c1cccc(CN2CCC(c3ccc4c(c3)CN(C3CCC(=O)NC3=O)C4=O)CC2)c1)c1ncccn1 (centres unmarked)    10 to 30 nM
7) N#Cc1ccc(CN2CCC(c3ccc4c(c3)CN(C3CCC(=O)NC3=O)C4=O)CC2)nc1Nc1ccccc1 (centres unmarked)    30 to 150 nM
8) O=C1CCC(N2Cc3cc(C4CCN(Cc5ccnc(C(=O)Nc6ccccc6)c5)CC4)ccc3C2=O)C(=O)N1 (centres unmarked)    30 to 150 nM
9) O=C1CCC(N2Cc3cc(C4CCN(Cc5cccc(Nc6ncc(Cl)cn6)c5)CC4)ccc3C2=O)C(=O)N1 (centres unmarked)    < 10 nM
10) O=C1CCC(N2Cc3cc(C4(O)CCN(Cc5ccc6ccc(-c7ccccc7)nc6c5)CC4)ccc3C2=O)C(=O)N1 (centres unmarked)    < 10 nM
11) O=C1CCC(N2Cc3cc(C4CCN(Cc5cc(Nc6ccccc6)ncn5)CC4)ccc3C2=O)C(=O)N1 (centres unmarked)    30 to 150 nM
12) O=C1CCC(N2Cc3cc(C4CCN(Cc5cccc(C(=O)Nc6ccccn6)c5)CC4)ccc3C2=O)C(=O)N1 (centres unmarked)    < 10 nM
13) O=C1CCC(N2Cc3cc(C4CCN(Cc5cccc(N6CCCCS6(=O)=O)c5)CC4)ccc3C2=O)C(=O)N1 (centres unmarked)    10 to 30 nM
14) COc1cccc(CN2CCC(O)(c3ccc4c(c3)CN(C3CCC(=O)NC3=O)C4=O)CC2)c1 (centres unmarked)    < 10 nM

====

Target: IKZF2 (Homo sapiens, UniProt Q96SW2+Q9UKS7)
Construct: CRISPR/Cas9—mediated insertion of the HiBiT peptide tag (Promega™) to the N-terminus of the IKZF2 gene locus; endogenous in cells; host or cells: MOLT4 cells, with CRISPR/Cas9 knock-in of HiBiT at the endogenous IKZF2 locus
Experiment: HiBit-IKZF2 assay (HiBiT-Helios degradation in MOLT4 cells)
Assay type: cell-based
Conditions: MOLT-4, extent of degradation from highest to lowest concentration, 10 μM to 0.00026 μM, read-out: Dmax
Recorded Endpoint: Dmax

1. O=C1CCC(N2Cc3cc(C4(O)CCN(Cc5ccc6c(c5)C(=O)N(c5ccccc5O)C6)CC4)ccc3C2=O)C(=O)N1 (centres unmarked)    > 70%
2. O=C1CCC(N2Cc3cc(C4CCN(Cc5cccc(N6Cc7cccnc7C6=O)c5)CC4)ccc3C2=O)C(=O)N1 (centres unmarked)    50 to 70%
3. O=C1CCC(N2Cc3cc(C4CCN(Cc5cccc(N6C(=O)Cc7ccccc76)c5)CC4)ccc3C2=O)C(=O)N1 (centres unmarked)    50 to 70%
4. O=C1CCC(N2Cc3cc(C4(O)CCN(Cc5ccccc5OC(F)F)CC4)ccc3C2=O)C(=O)N1 (centres unmarked)    > 70%
5. O=C1CCC(N2Cc3cc(C4(O)CCN(Cc5cccc(Oc6ccccc6)c5)CC4)ccc3C2=O)C(=O)N1 (centres unmarked)    > 70%
6. O=C1CCC(N2Cc3cc(C4CCN(Cc5ccc(S(=O)(=O)Nc6ccccn6)cc5)CC4)ccc3C2=O)C(=O)N1 (centres unmarked)    50 to 70%
7. O=C1CCC(N2Cc3cc(C4CCN(Cc5ccc6c(c5)C(=O)N(c5ncccc5F)C6)CC4)ccc3C2=O)C(=O)N1 (centres unmarked)    50 to 70%
8. O=C1CCC(N2Cc3cc(C4CCN(Cc5ccc6c(c5)CN(c5ccccc5)C6=O)CC4)ccc3C2=O)C(=O)N1 (centres unmarked)    50 to 70%
9. O=C1CCC(N2Cc3cc(C4(O)CCN(Cc5ccc6c(c5)CCO6)CC4)ccc3C2=O)C(=O)N1 (centres unmarked)    > 70%
10. O=C1CCC(N2Cc3cc(C4CCN(Cc5cc6c(cn5)CN(c5ccccc5)C6=O)CC4)ccc3C2=O)C(=O)N1 (centres unmarked)    50 to 70%
11. O=C1CCC(N2Cc3cc(C4CCN(Cc5cccc(N6Cc7ncccc7C6=O)c5)CC4)ccc3C2=O)C(=O)N1 (centres unmarked)    50 to 70%
12. N#Cc1ccc(CN2CCC(c3ccc4c(c3)CN(C3CCC(=O)NC3=O)C4=O)CC2)nc1Nc1ccccc1 (centres unmarked)    50 to 70%
13. O=C1CCC(N2Cc3cc(C4(O)CCN(Cc5cccc(C(F)(F)F)c5)CC4)ccc3C2=O)C(=O)N1 (centres unmarked)    > 70%
14. O=C1CCC(N2Cc3cc(C4CCN(Cc5cccc6c5CN(c5ccccc5)C6=O)CC4)ccc3C2=O)C(=O)N1 (centres unmarked)    30 to 50%

====

Target: IKZF2 (Homo sapiens, UniProt Q96SW2+Q9UKS7)
Construct: CRISPR/Cas9—mediated insertion of the HiBiT peptide tag (Promega™) to the N-terminus of the IKZF2 gene locus; endogenous in cells; host or cells: MOLT4 cells, with CRISPR/Cas9 knock-in of HiBiT at the endogenous IKZF2 locus
Test: HiBit-IKZF2 assay (HiBiT-Helios degradation in MOLT4 cells)
Type: cell-based
Settings: MOLT-4, extent of degradation from highest to lowest concentration, 10 μM to 0.00026 μM, read-out: Dmax
Recorded Dmax, one value per entry.
Recorded Endpoint: Dmax

1) O=C1CCC(N2Cc3cc(C4(O)CCN(Cc5ccc6ncn(-c7ccccn7)c(=O)c6c5)CC4)ccc3C2=O)C(=O)N1 (centres unmarked)    > 70%
2) O=C1CCC(N2Cc3cc(C4(O)CCN(Cc5ccc(F)c(F)c5)CC4)ccc3C2=O)C(=O)N1 (centres unmarked)    > 70%
3) O=C1CCC(N2Cc3cc(C4(O)CCN(Cc5ccc(F)c(Cl)c5)CC4)ccc3C2=O)C(=O)N1 (centres unmarked)    > 70%
4) COc1ccccc1CN1CCC(O)(c2ccc3c(c2)CN(C2CCC(=O)NC2=O)C3=O)CC1 (centres unmarked)    > 70%
5) O=C1CCC(N2Cc3cc(C4CCN(Cc5ccnc(Nc6ccccc6)c5)CC4)ccc3C2=O)C(=O)N1 (centres unmarked)    50 to 70%

Source listed as patent US20230002397A1.
